test target: T1, P6-AA-12HGe-T
T1 chain: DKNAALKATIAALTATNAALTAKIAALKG
assay explanation: two-hybrid library CCmax;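 further: natural log of median RNA to DNA barcode read ratio; higher means stronger binding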
condition: mean of both orientations
Listed below: interaction score values for each entry.

binder: DENAALEAYIAALYAYNAALYAEIAALEG [P5-AA-12HGe-Y]
interaction score: -0.218

binder: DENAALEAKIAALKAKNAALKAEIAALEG [4H1401-AA]
interaction score: 0.16

binder: DENAALEASIAALSASNAALSAEIAALEG [P5-AA-12HGe-S]
interaction score: -1.05

binder: DENAALEARIAALRARNAALRAEIAALEG [P5-AA-12HGe-R]
interaction score: -0.204

binder: DENAALEAMIAALMAMNAALMAEIAALEG [P5-AA-12HGe-M]
interaction score: 1.54

binder: DENAALEAWIAALWAWNAALWAEIAALEG [P5-AA-12HGe-W]
interaction score: -0.564

binder: DENAALEAAIAALAAANAALAAEIAALEG [P5-AA-12HGe-A]
interaction score: -0.125

binder: DENAALEAQIAALQAQNAALQAEIAALEG [P5-AA-12HGe-Q]
interaction score: 1.2

binder: DENAALEAHIAALHAHNAALHAEIAALEG [P5-AA-12HGe-H]
interaction score: -1.15

binder: DENAALEATIAALTATNAALTAEIAALEG [P5-AA-12HGe-T]
interaction score: -0.438

binder: DENAALEADIAALDADNAALDAEIAALEG [P5-AA-12HGe-D]
interaction score: -1.98

binder: DENAALEAEIAALEAENAALEAEIAALEG [P5-AA-12HGe-E]
interaction score: 0.892
